Target or system: KAT8 (Homo sapiens (Human))
Sequence (Q9H7Z6 whole entry): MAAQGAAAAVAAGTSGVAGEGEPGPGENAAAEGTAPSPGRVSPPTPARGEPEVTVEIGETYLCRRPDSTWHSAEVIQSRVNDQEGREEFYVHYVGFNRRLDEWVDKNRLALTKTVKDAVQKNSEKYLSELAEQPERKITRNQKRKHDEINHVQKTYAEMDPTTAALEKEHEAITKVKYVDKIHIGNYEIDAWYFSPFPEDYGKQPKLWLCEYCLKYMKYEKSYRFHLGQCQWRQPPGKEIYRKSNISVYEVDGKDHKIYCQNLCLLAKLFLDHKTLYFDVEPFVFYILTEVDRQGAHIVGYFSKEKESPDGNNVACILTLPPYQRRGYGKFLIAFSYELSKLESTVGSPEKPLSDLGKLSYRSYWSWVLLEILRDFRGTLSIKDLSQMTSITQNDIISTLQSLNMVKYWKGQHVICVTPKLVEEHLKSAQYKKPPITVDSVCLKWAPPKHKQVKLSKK
Assay explanation: KAT assay (SAMDI mass spectrometry), KAT8
Assay type: biochemical
Measurement context: read-out: KAT8 Ki at 1 μM AcCoA
Readout: Ki (µM)
Please state the figure in µM; there is no need to write the unit.

Specify Ki for CCOc1cc(C)ccc1S(=O)(=O)Nc1noc2cc(Cn3cccn3)cc(OC)c12 [Example 50] and stop.
0.35

Please supply the value of reported Ki for the item COc1cc(C2CC2)cc(OC)c1S(=O)(=O)Nc1noc2cc(Cn3cccn3)cc(OC)c12 [Example 24]
0.16

Could you please provide reported Ki for COc1cccc(OC)c1S(=O)(=O)Nc1noc2cc(Cn3cccn3)ccc12 [Example 28] ? Thanks!
3.26

Let me know recorded Ki for COc1cc(Cn2cccn2)cc2onc(NS(=O)(=O)c3cccc(C)c3F)c12 [Example 70] , thanks.
3.26

Read off the recorded Ki for COc1cccc(F)c1S(=O)(=O)Nc1noc2cc(Cn3cccn3)cc(OC)c12 [Example 6]
3.32

Item COc1cc(Cn2cccn2)cc2onc(NS(=O)(=O)c3ccc(C)c(F)c3)c12 [Example 79] : provide Ki
3.26

Please supply the value of reported Ki for the item COc1cccc(OC)c1S(=O)(=O)Nc1noc2cc(Cn3cccn3)cc(C3CC3)c12 [Example 96]
12.5

Specify reported Ki for the compound shown: COc1cc(C)ccc1S(=O)(=O)Nc1noc2cc(Cn3cccn3)cc(OC)c12 [Example 47]
0.56

Give reported Ki value for COc1ccc(C(C)C)cc1S(=O)(=O)Nc1noc2cc(Cn3cccn3)cc(OC)c12 [Example 18]
0.1

Note down Ki recorded for COc1cc(OC)c(S(=O)(=O)Nc2noc3cc(Cn4cccn4)cc(OC4CC4)c23)c(OC)c1 [Example 26]
27.1

Recall and state the measured Ki for COc1cccc(OC)c1S(=O)(=O)Nc1noc2cc(Cn3cccn3)cc(OC3CC3)c12 [Example 11] .
3.26

Using the record for COc1cc(Cn2cccn2)cc2onc(NS(=O)(=O)c3cc(C)c(F)c(C)c3)c12 [Example 78] , state its measured Ki.
12.5

Provide one value: measured Ki of CCOc1ccccc1S(=O)(=O)Nc1noc2cc(Cn3cccn3)cc(OC)c12 [Example 51]
1.11

Read off the recorded Ki for COc1cccc(OC)c1S(=O)(=O)Nc1noc2cc(Cn3cccn3)cc(OC(C)C)c12 [Example 10]
19.4

Tell us which Ki value is on record for CCOc1cc(Cn2cccn2)cc2onc(NS(=O)(=O)c3c(OC)cccc3OC)c12 [Example 25]
12.5

Using the record for CCc1ccc(OC)c(S(=O)(=O)Nc2noc3cc(Cn4cccn4)cc(OC)c23)c1 [Example 1] , state its measured Ki.
0.11

Report measured Ki; entry is COc1cc(Cn2cccn2)cc2onc(NS(=O)(=O)c3cc(C)cc(F)c3)c12 [Example 75]
12.5

Specify reported Ki for the compound shown: COc1cccc(OC)c1S(=O)(=O)Nc1noc2cc(Cn3cc(CO)cn3)cc(OC)c12 [Example 87]
17.9

====

For each entry below, report its log10 Ki value.
Target or system: KAT5 (Homo sapiens (Human))
Sequence (Q92993 whole entry): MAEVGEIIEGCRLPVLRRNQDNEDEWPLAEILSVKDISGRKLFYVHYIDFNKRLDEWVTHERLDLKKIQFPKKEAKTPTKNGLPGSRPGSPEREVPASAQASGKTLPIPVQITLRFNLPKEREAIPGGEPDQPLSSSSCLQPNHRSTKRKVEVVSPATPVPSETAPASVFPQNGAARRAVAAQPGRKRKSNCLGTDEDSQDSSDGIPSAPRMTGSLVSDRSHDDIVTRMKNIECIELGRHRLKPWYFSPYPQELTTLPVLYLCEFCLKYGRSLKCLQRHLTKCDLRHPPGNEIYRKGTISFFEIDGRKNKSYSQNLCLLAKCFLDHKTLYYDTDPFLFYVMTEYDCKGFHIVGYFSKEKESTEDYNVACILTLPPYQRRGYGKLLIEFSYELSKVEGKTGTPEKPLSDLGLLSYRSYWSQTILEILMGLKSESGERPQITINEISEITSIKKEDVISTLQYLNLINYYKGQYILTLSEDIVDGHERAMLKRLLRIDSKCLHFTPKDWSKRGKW
Assay explanation: KAT assay (SAMDI mass spectrometry), KAT5;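 note: Baculovirus-expressed KAT5 acetylating a histone H4 peptide at room temperature, read as percent conversion to product, Ki from a Morrison tight-binding competitive fit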
Assay type: biochemical
Measurement context: read-out: KAT5 Ki at 1 μM AcCoA
// do not treat as linear: log10 of Ki, unit nM

Given the compound `CCOc1cc(C)ccc1S(=O)(=O)Nc1noc2cc(Cn3cccn3)cc(OC)c12` , write its reported log10 Ki.
2.41

Provide one value: measured log10 Ki of `COc1cccc(OC)c1S(=O)(=O)Nc1noc2cc(Cn3cccn3)c(Br)cc12`
2.04

Determine its reported log10 Ki: `COc1cc(Cn2cccn2)cc2onc(NS(=O)(=O)c3cccc(C)c3C#N)c12`
3.64

Entry `COc1ccc(OC)c(S(=O)(=O)Nc2noc3cc(Cn4cccn4)cc(OC)c23)c1` needs its log10 Ki filled in; supply it.
2.90

Indicate its recorded log10 Ki; the compound in question is `COc1cccc(OC)c1S(=O)(=O)Nc1noc2cc(Cn3nccn3)cc(OC)c12`
3.32

# return recorded log10 Ki for entry `CCc1ccc(OC)c(S(=O)(=O)Nc2noc3cc(Cn4cccn4)cc(OC)c23)c1`
2.08

State, in one line, measured log10 Ki of `COc1ccc(S(=O)(=O)Nc2noc3cc(Cn4cccn4)cc(OC)c23)c(OC)c1`
2.72

Write down log10 Ki measured for item `COc1cccc(OC)c1S(=O)(=O)Nc1noc2cc(Cn3cccn3)ccc12`
3.48

Output log10 Ki of `COc1cc(OC)c(S(=O)(=O)Nc2noc3cc(Cn4cccn4)cc(OC)c23)c(OC)c1`
2.43

Look up log10 Ki of `COc1ccc2c(c1S(=O)(=O)Nc1noc3cc(Cn4cccn4)cc(OC)c13)CCCC2` and report it.
3.01

Return log10 Ki for the following compound: `COc1ccc(C)cc1S(=O)(=O)Nc1noc2cc(Cn3cccn3)cc(OC)c12`
2.18

Consider the compound `COc1cc(C2CC2)cc(OC)c1S(=O)(=O)Nc1noc2cc(Cn3cccn3)cc(OC)c12` . State its measured log10 Ki.
2.28

Please list log10 Ki recorded for the compound `COc1cc(C)ccc1S(=O)(=O)Nc1noc2cc(Cn3cccn3)cc(OC)c12`
2.26

Supply reported log10 Ki belonging to this compound: `COc1cccc(OC)c1S(=O)(=O)Nc1noc2cc(Cn3cccn3)cc(F)c12`
3.56

Return log10 Ki (reported value) for this compound: `COc1cc(Cn2cccn2)cc2onc(NS(=O)(=O)c3cc(C)cc(F)c3)c12`
3.76

Tell me its log10 Ki given `COc1cccc(OC)c1S(=O)(=O)Nc1noc2cc(Cn3cccn3)c(C)cc12` as the entry.
2.34

Return log10 Ki (reported value) for this compound: `COc1cc(Cn2cccn2)cc2onc(NS(=O)(=O)c3ccc(C)cc3F)c12`
3.49
